- TARGET OF ASSAY: T1, Human CD3eg linker (human)
- T1 construct: Single chain: epsilon and gamma subunits of human CD3 joined by a 29-mer linker, Flag-tag at the C-terminus; also called recombinant human CD3
- T1 chain: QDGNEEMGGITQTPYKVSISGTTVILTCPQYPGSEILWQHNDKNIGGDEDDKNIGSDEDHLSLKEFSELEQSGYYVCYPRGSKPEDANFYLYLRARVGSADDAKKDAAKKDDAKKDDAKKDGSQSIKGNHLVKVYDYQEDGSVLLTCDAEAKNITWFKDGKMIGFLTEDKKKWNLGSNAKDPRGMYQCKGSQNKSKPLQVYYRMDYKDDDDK
- EXPERIMENT DESCRIPTION: Biacore SPR, vs template H183/L072
Quick reference: fold change of affinity of the listed items.
Please respond with the number in fold and leave the unit unwritten.

{"BINDER": "H183/L072 VH K64A (antibody, name in Kabat numbering, V domains shown) VH: QVQLVESGGGLVQPGRSLRLSCAASGFTFSNAWMHWVRQAPGKGLEWVAQIKDKGNAYAAYYAPSVAGRFTISRDDSKNSIYLQMNSLKTEDTAVYYCHYVHYASASTVLPAFGVDAWGQGTTVTVSS VL: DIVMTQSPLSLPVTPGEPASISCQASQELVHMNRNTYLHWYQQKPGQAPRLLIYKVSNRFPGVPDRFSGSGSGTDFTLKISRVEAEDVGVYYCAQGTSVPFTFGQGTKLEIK", "fold change of affinity [fold]": 1}

--- query ---
Specify fold change of affinity for H183/L072 VH S30P (antibody, name in Kabat numbering, V domains shown) VH: QVQLVESGGGLVQPGRSLRLSCAASGFTFPNAWMHWVRQAPGKGLEWVAQIKDKGNAYAAYYAPSVKGRFTISRDDSKNSIYLQMNSLKTEDTAVYYCHYVHYASASTVLPAFGVDAWGQGTTVTVSS VL: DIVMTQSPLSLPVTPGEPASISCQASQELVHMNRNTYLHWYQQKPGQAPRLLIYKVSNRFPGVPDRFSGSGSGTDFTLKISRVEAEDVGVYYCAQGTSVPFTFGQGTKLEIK and stop.
0.3
